Tested on: 883617-216-R-J1-PDC complex spheroid viability;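 further: exposure lasted seven days after three days of spheroid growth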
Assay: Anticancer human tumor 883617-216-R-J1-PDC patient-derived bladder carcinoma cell line growth inhibition; active means viability on the fitted dose curve at most 10% of control; inactive means the rest
Conditions: second compound 0.1 µM; first compound 0.0316 µM
Classes used: active, inactive

[
  {
    "Compound": "Cn1ncnc1C1c2n[nH]c(=O)c3cc(F)cc(c23)NC1c1ccc(F)cc1 (stereo unspecified) + NC1CCC(NC2CC2c2ccccc2)CC1",
    "Class": "inactive"
  },
  {
    "Compound": "CC1(C)CCC(CN2CCN(c3ccc(C(=O)NS(=O)(=O)c4ccc(NCC5CCOCC5)c([N+](=O)[O-])c4)c(Oc4cnc5[nH]ccc5c4)c3)CC2)=C(c2ccc(Cl)cc2)C1 + NC1CCC(NC2CC2c2ccccc2)CC1",
    "Class": "inactive"
  },
  {
    "Compound": "CC(C)CC(NC(=O)CNC(=O)c1cc(Cl)ccc1Cl)B1OC(=O)CC(CC(=O)O)(C(=O)O)O1 (stereo unspecified) + NC1CC1c1ccc(-c2cccc(O)c2)cc1",
    "Class": "active"
  },
  {
    "Compound": "O=C(c1cc(Cc2n[nH]c(=O)c3ccccc23)ccc1F)N1CCN(C(=O)C2CC2)CC1 + NC1CC1c1ccc(-c2cccc(O)c2)cc1",
    "Class": "inactive"
  },
  {
    "Compound": "CC(C)c1c(-c2ccccc2)nc2c(C#N)c[nH]n2c1=O + NC1CC1c1ccc(-c2cccc(O)c2)cc1",
    "Class": "inactive"
  },
  {
    "Compound": "COc1ccc([C@@H](O)c2cc(-c3ncnc4cc(N5CCOCC5)ccc34)c(F)cc2Cl)nn1 + NC1CCC(NC2CC2c2ccccc2)CC1",
    "Class": "inactive"
  }
]
